Overview of recorded melting point for various molecules

>  <molecule>
O=C(NCc1ccc(-c2cccc(F)c2)cc1)Nc1cccc2c1CC(O)CC2 (stereo not drawn) [Example 1-38]

>  <melting point>
191 to 192 °C

$$$$
>  <molecule>
Cc1ccc(C)c(-c2ccc(CNC(=O)Nc3cccc4c3CC(O)CC4)cc2)c1 (stereo not drawn) [Example 1-37]

>  <melting point>
181 to 182 °C

$$$$
>  <molecule>
O=C(NCc1cccc(-c2ccc(Cl)cc2Cl)c1)Nc1cccc2c1CC(O)CC2 (stereo not drawn) [Example 1-72]

>  <melting point>
152 to 153 °C

$$$$
>  <molecule>
C[S+]([O-])c1ccc(-c2cccc(CNC(=O)Nc3cccc4c3CC(O)CC4)c2)cc1 (stereo not drawn) [Example 1-74]

>  <melting point>
110 to 112 °C

$$$$
>  <molecule>
O=C(NCc1ccc(-c2cccc(Cl)c2)cc1)Nc1cccc2c1CC(O)CC2 (stereo not drawn) [Example 1-33]

>  <melting point>
195 to 196 °C

$$$$
>  <molecule>
O=C(Nc1cccc(-c2ccc(F)cc2F)c1)Nc1cccc2c1CC(O)CC2 (stereo not drawn) [Example 1-5]

>  <melting point>
187 to 189 °C

$$$$
